B1: MFF (parent)
chain: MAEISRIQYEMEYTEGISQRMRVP

variants of: B1; test: protein stability index of a GFP-peptide fusion (GPS, HEK-293T) (PSI 1-6); higher = more stable; conditions: c terminus: a fixed tail appended;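 note: lentivirally expressed fusions sorted by FACS into six bins by GFP to DsRed ratio, PSI derived from sequencing read proportions per bin multiplied by bin number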
Answer rule not met if protein stability index is under 2, and rule met if it is 2 or more.

Alteration: E15V
Class: rule not met
--
Alteration: S18K
Class: rule met
--
Alteration: E15N
Class: rule met

[Q] Threshold query (protein stability index >= 2) on `V23Q`
[A] rule met

[Q] Record `E3M` ; criterion: protein stability index no lower than 2. Met?
[A] rule not met

[Q] Please check the record `M21S` and state if its protein stability index is at or above 2.
[A] rule met

[Q] API: above_or_equal(metric=protein stability index, cutoff=2) for item `E15W`
[A] rule not met

[Q] Exam item: decide whether the reported protein stability index for `R22T` is at least 2.
[A] rule met
